Tested On: BRD4 long isoform (Homo sapiens)
Construct: endogenous in cells; host or cells: MDA-MB-468
Experiment Summary: BRD4 degradation assay (Western blot, MDA-MB-468 cells), long isoform
Type: cell-based
Condition Label: 24 h, 1 μM, MDA-MB-468, n = 2
Recorded Endpoint: % Mean Degradation of BRD4 (%)

Known % Mean Degradation of BRD4 results, listed for orientation:
* Cc1sc2c(c1C)C(c1ccc(Cl)cc1)=N[C@@H](CC(=O)NCCOCCC(=O)NCCOCc1c(COc3ccc(Cl)c4c3[C@@H](CN3CC5(CC5)CC3=O)N(C(=O)[C@@H]3CCCC[C@]3(C)C(=O)O)CC4)nnn1C)c1nnc(C)n1-2 [Example 5] | 65
* Cc1sc2c(c1C)C(c1ccc(Cl)cc1)=N[C@@H](CC(=O)NCCOCCOCCNC(=O)[C@@]1(C)CCCC[C@H]1C(=O)N1CCc3c(Cl)ccc(OCc4nnn(C)c4C)c3[C@H]1CN1CC3(CC3)CC1=O)c1nnc(C)n1-2 [Comparative Example 3, reference compound] | 45

[I] Cc1sc2c(c1C)C(c1ccc(Cl)cc1)=N[C@@H](CC(=O)NCC(=O)NCCOCC(=O)N1CC[C@H](Oc3ccc(Cl)c4c3[C@@H](CN3CC5(CC5)CC3=O)N(C(=O)[C@@H]3CCCC[C@]3(C)C(=O)O)CC4)C1)c1nnc(C)n1-2 [Example 6]
[II] CNC(=O)[C@@]1(C)CCCC[C@H]1C(=O)N1CCc2c(Cl)ccc(OCc3nnn(CCNC(=O)CNC(=O)C[C@@H]4N=C(c5ccc(Cl)cc5)c5c(sc(C)c5C)-n5c(C)nnc54)c3C)c2[C@H]1CN1CC2(CC2)CC1=O [Example 2]
(Q) Problem: Given the entries I and II , determine which has the lower reported % Mean Degradation of BRD4. Which one? Tell me its label.
(A) I
(I: 52%, II: 93%)

---

Tested On: BRD4 short isoform (Homo sapiens, UniProt O60885)
Construct: endogenous in cells; host or cells: MDA-MB-468
Experiment Summary: BRD4 degradation assay (Western blot, MDA-MB-468 cells), short isoform
Format: cell-based
Condition Label: 48 h, 5 μM, MDA-MB-468, n = 2
Recorded Endpoint: % Mean Degradation of BRD4 (%)

[A] Cc1sc2c(c1C)C(c1ccc(Cl)cc1)=N[C@@H](CC(=O)NCC(=O)NCCOCC(=O)N1CC[C@H](Oc3ccc(Cl)c4c3[C@@H](CN3CC5(CC5)CC3=O)N(C(=O)[C@@H]3CCCC[C@]3(C)C(=O)O)CC4)C1)c1nnc(C)n1-2
[B] Cc1sc2c(c1C)C(c1ccc(Cl)cc1)=N[C@@H](CC(=O)NCCOCCOCCNC(=O)[C@@]1(C)CCCC[C@H]1C(=O)N1CCc3c(Cl)ccc(OCc4nnn(C)c4C)c3[C@H]1CN1CC3(CC3)CC1=O)c1nnc(C)n1-2 [Comparative Example 3, reference compound]
(Q) Problem: Given the entries A and B , determine which has the lower reported % Mean Degradation of BRD4. Which one? Tell me its label.
(A) B

---

Tested On: BRD4 short isoform (Homo sapiens)
Construct: endogenous in cells; host or cells: MDA-MB-468
Experiment Summary: BRD4 degradation assay (Western blot, MDA-MB-468 cells), short isoform
Assay type: cell-based
Condition Label: 24 h, 1 μM, MDA-MB-468, n = 2
Recorded Endpoint: % Mean Degradation of BRD4 (%)

[A] Cc1sc2c(c1C)C(c1ccc(Cl)cc1)=N[C@@H](CC(=O)NCCOCCNC(=O)[C@@]1(C)CCCC[C@H]1C(=O)N1CCc3c(Cl)ccc(OCc4nnn(C)c4C)c3[C@H]1CN1CC3(CC3)CC1=O)c1nnc(C)n1-2 [Comparative Example 2, reference compound]
[B] Cc1sc2c(c1C)C(c1ccc(Cl)cc1)=N[C@@H](CC(=O)NCCOCCC(=O)NCCOCc1c(COc3ccc(Cl)c4c3[C@@H](CN3CC5(CC5)CC3=O)N(C(=O)[C@@H]3CCCC[C@]3(C)C(=O)O)CC4)nnn1C)c1nnc(C)n1-2 [Example 5]
(Q) For this pair, A and B , which shows a numerically higher % Mean Degradation of BRD4? Which one? Tell me its label.
(A) B

[A] CNC(=O)[C@@]1(C)CCCC[C@H]1C(=O)N1CCc2c(Cl)ccc(OCc3nnn(CCNC(=O)CNC(=O)C[C@@H]4N=C(c5ccc(Cl)cc5)c5c(sc(C)c5C)-n5c(C)nnc54)c3C)c2[C@H]1CN1CC2(CC2)CC1=O [Example 2]
[B] Cc1sc2c(c1C)C(c1ccc(Cl)cc1)=N[C@@H](CC(=O)NCCC(=O)NCCOCc1c(COc3ccc(Cl)c4c3[C@@H](CN3CC5(CC5)CC3=O)N(C(=O)[C@@H]3CCCC[C@]3(C)C(=O)O)CC4)nnn1C)c1nnc(C)n1-2 [Example 4]
(Q) Problem: Given the entries A and B , determine which has the lower reported % Mean Degradation of BRD4. Which one? Tell me its label.
(A) B
(B: 65%, A: 95%)

---

Tested On: BRD4 short isoform (Homo sapiens)
Construct: endogenous in cells; host or cells: MDA-MB-468
Experiment Summary: BRD4 degradation assay (Western blot, MDA-MB-468 cells), short isoform
Assay type: cell-based
Condition Label: 48 h, 1 μM, MDA-MB-468, n = 2
Recorded Endpoint: % Mean Degradation of BRD4 (%)

Known % Mean Degradation of BRD4 results, listed for orientation:
- Cc1sc2c(c1C)C(c1ccc(Cl)cc1)=N[C@@H](CC(=O)NCCOCCC(=O)NCCOCc1c(COc3ccc(Cl)c4c3[C@@H](CN3CC5(CC5)CC3=O)N(C(=O)[C@@H]3CCCC[C@]3(C)C(=O)O)CC4)nnn1C)c1nnc(C)n1-2: 78
- Cc1sc2c(c1C)C(c1ccc(Cl)cc1)=N[C@@H](CC(=O)NCC(=O)NCCOCc1c(COc3ccc(Cl)c4c3[C@@H](CN3CC5(CC5)CC3=O)N(C(=O)[C@@H]3CCCC[C@]3(C)C(=O)O)CC4)nnn1C)c1nnc(C)n1-2: 77

[1] Cc1sc2c(c1C)C(c1ccc(Cl)cc1)=N[C@@H](CC(=O)NCCOCCOCCNC(=O)[C@@]1(C)CCCC[C@H]1C(=O)N1CCc3c(Cl)ccc(OCc4nnn(C)c4C)c3[C@H]1CN1CC3(CC3)CC1=O)c1nnc(C)n1-2 [Comparative Example 3, reference compound]
[2] Cc1sc2c(c1C)C(c1ccc(Cl)cc1)=N[C@@H](CC(=O)NCCC(=O)NCCOCc1c(COc3ccc(Cl)c4c3[C@@H](CN3CC5(CC5)CC3=O)N(C(=O)[C@@H]3CCCC[C@]3(C)C(=O)O)CC4)nnn1C)c1nnc(C)n1-2
(Q) For this pair, 1 and 2 , which shows a numerically higher % Mean Degradation of BRD4? Which one? Tell me its label.
(A) 2

---

Tested On: BRD4 short isoform (Homo sapiens)
Construct: endogenous in cells; host or cells: MDA-MB-468
Experiment Summary: BRD4 degradation assay (Western blot, MDA-MB-468 cells), short isoform
Format: cell-based
Condition Label: 24 h, 1 μM, MDA-MB-468, n = 2
Recorded Endpoint: % Mean Degradation of BRD4 (%)

Known % Mean Degradation of BRD4 results, listed for orientation:
* Cc1sc2c(c1C)C(c1ccc(Cl)cc1)=N[C@@H](CC(=O)NCC(=O)NCCNC(=O)[C@@]1(C)CCCC[C@H]1C(=O)N1CCc3c(Cl)ccc(OCc4nnn(C)c4C)c3[C@H]1CN1CC3(CC3)CC1=O)c1nnc(C)n1-2 [Comparative Example 1, reference compound] | 42
* Cc1sc2c(c1C)C(c1ccc(Cl)cc1)=N[C@@H](CC(=O)NCC(=O)NCCn1nnc(COc3ccc(Cl)c4c3[C@@H](CN3CC5(CC5)CC3=O)N(C(=O)[C@@H]3CCCC[C@]3(C)C(=O)O)CC4)c1C)c1nnc(C)n1-2 | 96

[1] Cc1sc2c(c1C)C(c1ccc(Cl)cc1)=N[C@@H](CC(=O)NCCOCCOCCNC(=O)[C@@]1(C)CCCC[C@H]1C(=O)N1CCc3c(Cl)ccc(OCc4nnn(C)c4C)c3[C@H]1CN1CC3(CC3)CC1=O)c1nnc(C)n1-2 [Comparative Example 3, reference compound]
[2] Cc1sc2c(c1C)C(c1ccc(Cl)cc1)=N[C@@H](CC(=O)NCC(=O)NCCOCc1c(COc3ccc(Cl)c4c3[C@@H](CN3CC5(CC5)CC3=O)N(C(=O)[C@@H]3CCCC[C@]3(C)C(=O)O)CC4)nnn1C)c1nnc(C)n1-2
[3] Cc1sc2c(c1C)C(c1ccc(Cl)cc1)=N[C@@H](CC(=O)NCC(=O)NCCOCC(=O)N1CC[C@H](Oc3ccc(Cl)c4c3[C@@H](CN3CC5(CC5)CC3=O)N(C(=O)[C@@H]3CCCC[C@]3(C)C(=O)O)CC4)C1)c1nnc(C)n1-2
(Q) Returns the items ordered by % Mean Degradation of BRD4, from maximum to minimum. I'd appreciate it if you listed the labels in the requested order.
(A) 2, 3, 1
(2: 87%, 3: 60%, 1: 31%)
